test: Tanguay_ZF_120hpf_YSE_legacy: (Legacy) Oregon State University Tanguay Lab 120 Hour Post-fertilization zebrafish Assay for Yolk Sac Edema (AID 2283634)
Records with an inconclusive call do not appear. Calls of active or inactive are those of the source. The calls were made as follows: active = hit-call score of the fitted dose curve at least 0.9, where 1 is the maximum; inconclusive = response in the unintended direction; inactive = score below 0.9.

compound: CC1(C)CON(Cc2ccccc2Cl)C1=O
outcome: inactive
//
compound: C=CCOC(=O)C(C)(C)OC(=O)c1cc(-n2c(=O)cc(C(F)(F)F)n(C)c2=O)ccc1Cl
outcome: inactive
//
compound: CC1(C)C(C(=O)OC(C#N)c2cccc(Oc3ccccc3)c2)C1(C)C (stereo not drawn)
outcome: inactive

###

read-out: CYP4A11 (gene 1579); experiment: LTEA_HepaRG_CYP4A11: Life Technologies and Expression Analysis (LTEA) Assay for CYP4A11 using HepaRG (AID 2283486); settings: mRNA level, 48 h; actives raise or lower the signal
Calls of active or inactive are those of the source. The calls were made as follows: active = hit-call score of the fitted dose curve at least 0.9, where 1 is the maximum; inactive = score below 0.9.
Outcome codes: true for active, false for inactive

mol: N#Cc1c(Cl)cccc1Cl
qualitative label: false
--
mol: CN/C(=N\[N+](=O)[O-])NCc1cnc(Cl)s1
qualitative label: false
--
mol: C=C(C)CN(CC)c1c([N+](=O)[O-])cc(C(F)(F)F)cc1[N+](=O)[O-]
qualitative label: false
--
mol: O=c1n(Cl)c(=O)n(Cl)c(=O)n1Cl
qualitative label: false
--
mol: CO/N=C(/C1=NOCCO1)c1ccccc1Oc1ncnc(Oc2ccccc2Cl)c1F
qualitative label: true

###

assay: ATG_NRF2_ARE_CIS: Attagene CIS-FACTORIAL HepG2 Assay for human Nuclear Factor Erythroid 2 Related Factor 2 (NFR2) response to Antioxidant Response Elements (ARE) (AID 2282992); conditions: HepG2 Attagene ARE/NRF2 reporter, transcription factor activity; actives raise or lower the signal
Active and inactive are the calls of the source. How the source made its calls: active means hit-call score of the fitted dose curve at least 0.9, where 1 is the maximum; inactive means score below 0.9.
Outcome codes: 1 (yes) (active), 0 (no) (inactive)

compound: CC(C)C1(C)N=C(c2ncccc2C(=O)O)NC1=O (stereo not given)
qualitative label: 0 (no)
//
compound: CS(=O)(=O)c1ccc(C(=O)C2C(=O)CCCC2=O)c([N+](=O)[O-])c1
qualitative label: 0 (no)
//
compound: O=c1n(Cl)c(=O)n(Cl)c(=O)n1Cl
qualitative label: 0 (no)
//
compound: O=C(O)c1c(Cl)ccc2cc(Cl)cnc12
qualitative label: 0 (no)
//
compound: CCCCC(O)(Cn1cncn1)c1ccc(Cl)cc1Cl (stereo not given)
qualitative label: 1 (yes)
//
compound: CCOP(=O)(OCC)Oc1nc(Cl)c(Cl)cc1Cl
qualitative label: 1 (yes)
//
compound: CSC(=O)c1c(C(F)F)nc(C(F)(F)F)c(C(=O)SC)c1CC(C)C
qualitative label: 0 (no)
//
compound: CC(C)(C)C(=O)C(Oc1ccc(Cl)cc1)n1cncn1 (stereo not given)
qualitative label: 1 (yes)
//
compound: CC(C)N1C(=O)N(c2ccccc2)CSC1=NC(C)(C)C
qualitative label: 0 (no)
//
compound: N#CN=C1SCCN1Cc1ccc(Cl)nc1
qualitative label: 1 (yes)
//
compound: CS(=O)(=O)c1cc(C(F)(F)F)ccc1C(=O)c1cnoc1C1CC1
qualitative label: 1 (yes)
//
compound: O=C(Nc1ccccc1-c1ccc(Cl)cc1)c1cccnc1Cl
qualitative label: 1 (yes)
//
compound: N#Cc1c(Cl)cccc1Cl
qualitative label: 1 (yes)
//
compound: CCOc1cc(C(C)(C)C)ccc1C1COC(c2c(F)cccc2F)=N1 (stereo not given)
qualitative label: 1 (yes)
//
compound: Cc1cnc(C2=NC(C)(C(C)C)C(=O)N2)c(C(=O)O)c1 (stereo not given)
qualitative label: 1 (yes)
//
compound: Cc1ccc(N=CN(C)C=Nc2ccc(C)cc2C)c(C)c1
qualitative label: 0 (no)
//
compound: CC1(C)C(C(=O)OC(C#N)c2cccc(Oc3ccccc3)c2)C1(C)C (stereo not given)
qualitative label: 1 (yes)
//
compound: CC1(C)CCC(=Cc2ccc(Cl)cc2)C1(O)Cn1cncn1 (stereo not given)
qualitative label: 1 (yes)
//
compound: CNC(=O)Oc1cccc2ccccc12
qualitative label: 1 (yes)
//
compound: Cn1c(-c2ccccc2)cc(-c2ccccc2)[n+]1C
qualitative label: 0 (no)
//
compound: Nc1c(Cl)c(F)nc(OCC(=O)O)c1Cl
qualitative label: 0 (no)
//
compound: O=P(O)(O)CCCl
qualitative label: 0 (no)
//
compound: COP(=S)(OC)Oc1ccc([N+](=O)[O-])c(C)c1
qualitative label: 1 (yes)
//
compound: COP(=S)(OC)SCn1nnc2ccccc2c1=O
qualitative label: 1 (yes)
//
compound: CO/N=C(/C1=NOCCO1)c1ccccc1Oc1ncnc(Oc2ccccc2Cl)c1F
qualitative label: 1 (yes)
